Data credit: patent US10494415B2

Below, each of the molecules is paired with its reported Kinetics koff value.
studySystem: IGF2 (Homo sapiens, UniProt P01344)
Sequence (P01344 25-91): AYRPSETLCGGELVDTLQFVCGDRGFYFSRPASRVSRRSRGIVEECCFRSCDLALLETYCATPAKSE
measurementNotes: SPR (Biacore T200) of recombinant IGF2R domain 11 mutants on immobilised biotinylated IGF2
Format: binding
Design: purchased GroPep
conditionDetails: Table 3; 25° C., HBS-EP pH 7.4
quantityName: Kinetics koff (s⁻¹)

[[record]]
molecule = "AB5 P1597K: domain 11 AB5 + P1597K (protein) MKSNEHDDCQVTNPSTGHLFDLSSLSGRAGFTAAYAKGWGVYMSICGENENCPPGVGACFGQTRISVGKANKRLRYVDQVLQLVYKDGSKCPSKSGLSYKSVISFVCRPEAGPTNRPMLISLDKQTCTLFFSWHTPLACEQATECSV"
quantityname = "Kinetics koff"
unitannotation = "s⁻¹"
valuereported = 0.0120

[[record]]
molecule = "AB3 Q1569R P1597H S1602H: domain 11 AB3 + Q1569R, P1597H, S1602H (protein) MKSNEHDDCQVTNPSTGHLFDLSSLSGRAGFTAAYSKSGVVYMSICGENENCPPGVGACFGRTRISVGKANKRLRYVDQVLQLVYKDGSHCPSKHGLSYKSVISFVCRPEAGPTNRPMLISLDKQTCTLFFSWHTPLACEQATECSV"
quantityname = "Kinetics koff"
unitannotation = "s⁻¹"
valuereported = 0.010

[[record]]
molecule = "AB5 P1597Q: domain 11 AB5 + P1597Q (protein) MKSNEHDDCQVTNPSTGHLFDLSSLSGRAGFTAAYAKGWGVYMSICGENENCPPGVGACFGQTRISVGKANKRLRYVDQVLQLVYKDGSQCPSKSGLSYKSVISFVCRPEAGPTNRPMLISLDKQTCTLFFSWHTPLACEQATECSV"
quantityname = "Kinetics koff"
unitannotation = "s⁻¹"
valuereported = 0.0203

[[record]]
molecule = "AB3 P1597K S1602H: domain 11 AB3 + P1597K, S1602H (protein) MKSNEHDDCQVTNPSTGHLFDLSSLSGRAGFTAAYSKSGVVYMSICGENENCPPGVGACFGQTRISVGKANKRLRYVDQVLQLVYKDGSKCPSKHGLSYKSVISFVCRPEAGPTNRPMLISLDKQTCTLFFSWHTPLACEQATECSV"
quantityname = "Kinetics koff"
unitannotation = "s⁻¹"
valuereported = 0.0102

[[record]]
molecule = "AB5 P1597A: domain 11 AB5 + P1597A (protein) MKSNEHDDCQVTNPSTGHLFDLSSLSGRAGFTAAYAKGWGVYMSICGENENCPPGVGACFGQTRISVGKANKRLRYVDQVLQLVYKDGSACPSKSGLSYKSVISFVCRPEAGPTNRPMLISLDKQTCTLFFSWHTPLACEQATECSV"
quantityname = "Kinetics koff"
unitannotation = "s⁻¹"
valuereported = 0.0174

[[record]]
molecule = "AB5 P1597H S1602H: domain 11 AB5 + P1597H, S1602H (protein) MKSNEHDDCQVTNPSTGHLFDLSSLSGRAGFTAAYAKGWGVYMSICGENENCPPGVGACFGQTRISVGKANKRLRYVDQVLQLVYKDGSHCPSKHGLSYKSVISFVCRPEAGPTNRPMLISLDKQTCTLFFSWHTPLACEQATECSV"
quantityname = "Kinetics koff"
unitannotation = "s⁻¹"
valuereported = 0.0046

